Consider the following compounds; for each one, report its Z.CTG.
- Tested on: ISC-enriched organoids
- Protocol Details: Primary screen, 384-well 2.5-D organoid differentiation (ENR+CD, 6 days, Target Selective Inhibitor Library, vs whole-plate median): ATP (CellTiter-Glo 3D, CTG)
- Condition Description: Dose 2.00 uM; primary screen, standard z score
Answers are plain numbers.

// batch mode: one Z.CTG value per listed entry
1. CN(Cc1cnc2nc(N)nc(N)c2n1)c1ccc(C(=O)N[C@@H](CCC(=O)O)C(=O)O)cc1 [Methotrexate]
2. CC1=C(/C=C/C(C)=C/C=C/C(C)=C\C(=O)O)C(C)(C)CCC1
3. O=c1cc(-c2cccc3c2Sc2ccccc2S3)oc(N2CCOCC2)c1
4. N#Cc1ccc(C(c2ccc(C#N)cc2)n2cncn2)cc1
5. O=C(C[S+]([O-])Cc1ccco1)NC/C=C\COc1cc(CN2CCCCC2)ccn1 (stereo not shown)
6. NC(=O)c1ccc(I)c([N+](=O)[O-])c1
7. Cc1ccc(NC(=O)c2ccc(CN3CCN(C)CC3)cc2)cc1Nc1nccc(-c2cccnc2)n1 [Imatinib (STI571)]

Response:
−1.674
0.604
1.317
0.236
0.329
0.375
0.135

###

- Test system: ISC-enriched organoids
- Protocol Details: Primary screen, 384-well 2.5-D organoid differentiation (ENR+CD, 6 days): basal lysozyme secretion (LYZ.NS)
- Format: cell-based, murine
- Condition Description: Dose 2.00 uM; primary screen, FC vs plate median
Outcome label depends on Dose.FC.LYZ.NS relative to 0.02 log 2 fold change: at/above gives YES, below gives NO.

>>> label("S=C=Nc1cccc(NC(=S)NCCCCNC(=S)Nc2cccc(N=C=S)c2)c1 [MRS 2578]")
"YES"
>>> label("O=c1cc(N2CCOCC2)oc2c1ccc1ccccc12 [NU7026]")
"NO"
>>> label("Cn1cc(/C=C2\\C(=O)Nc3cccnc32)c2ccccc21 [GW441756]")
"YES"
>>> label("Cc1cnc(-c2cc(N3CCN(C(=O)CCS(C)(=O)=O)CC3)ncc2Cl)c(C)c1 [PF-5274857]")
"NO"
>>> label("C=CC(=O)N1CCC[C@@H](n2nc(-c3ccc(Oc4ccccc4)cc3)c3c(N)ncnc32)C1 [Ibrutinib (PCI-32765)]")
"NO"

Query: hey, is Dose.FC.LYZ.NS for this one >= 0.02 log 2 fold change? CC(C)c1onc(-c2c(Cl)cccc2Cl)c1COc1ccc(/C=C/c2cccc(C(=O)O)c2)c(Cl)c1 [GW4064]
Response: YES

Query: Identify whether the reported Dose.FC.LYZ.NS of the following compound is 0.02 log 2 fold change or greater: O=C(c1ccc(Nc2nccc(-c3cc4ccccc4s3)n2)cc1)N1CCC(N2CCCC2)CC1 [IKK-16 (IKK Inhibitor VII)]
Response: NO

Query: Quick check, Dose.FC.LYZ.NS >= 0.02 log 2 fold change? Oc1ccc2ccccc2c1SSc1c(O)ccc2ccccc12 [IPA-3]
Response: NO

Query: # bool: Dose.FC.LYZ.NS of COc1ccc2c(c1)c(C1=C(c3c[nH]c4ccccc34)C(=O)NC1=O)cn2CCCN(C)C [Go 6983] >= 0.02 log 2 fold change
Response: YES

###

- Test system: ISC-enriched organoids
- Protocol Details: Primary screen, 384-well 2.5-D organoid differentiation (ENR+CD, 6 days): basal lysozyme secretion (LYZ.NS)
- Assay type: cell-based, murine
- Condition Description: primary screen, dose 2.00 uM, ENR+CD 6 days, FC vs plate median
Kindly supply the reported Dose.FC.LYZ.NS values for the records listed here.
One number for each entry, in log 2 fold change.

>>> recorded_result("C[C@H]1COC2(CCN(c3nc(=O)c4cc(C(F)(F)F)cc([N+](=O)[O-])c4s3)CC2)O1 (racemic) [BTZ043 Racemate]")
0.089
>>> recorded_result("CC(C)N(CC[C@H](c1ccccc1)c1cc(CO)ccc1O)C(C)C [5-hydroxymethyl Tolterodine (PNU 200577, 5-HMT, 5-HM)]")
0.154

Moving on to the next compound.
Query: Fill: Dose.FC.LYZ.NS (ISC-enriched organoids) for this compound CN(C)Cc1ccc(-c2nc3cccc4c3n2CCNC4=O)cc1
Response: 0.032

###

Could you please report measured SSMD.LYZ.NS for the items listed next?
- Test system: ISC-enriched organoids
- Protocol Details: Primary screen, 384-well 2.5-D organoid differentiation (ENR+CD, 6 days): basal lysozyme secretion (LYZ.NS)
- Format: cell-based, murine
- Condition Description: strictly standardized mean difference; primary screen; 4th of the 4 dose lines of the treatment (dose not given)
One number for each entry.

Example cases with answers are listed next.
>>> recorded_result("CCn1c(=O)c2c(nc(/C=C/c3ccc(OC)c(OC)c3)n2C)n(CC)c1=O")
"−0.336"
>>> recorded_result("CNC(=O)[C@H](Cc1c[nH]c2ccccc12)NC(=O)[C@@H](CC(=O)NO)CC(C)C")
"−0.635"
>>> recorded_result("COC(=O)CCSCc1ccc(-c2onc(C)c2NC(=O)OC(C)c2ccccc2Cl)cc1 (centres unmarked)")
"−0.914"
>>> recorded_result("CCCCc1nc(Cl)c(CO)n1Cc1ccc(-c2ccccc2-c2nnn[n-]2)cc1.[K+]")
0.423

// each listed compound needs a value for SSMD.LYZ.NS
1. CC#CCn1c(N2CCC[C@@H](N)C2)nc2c1c(=O)n(Cc1nc(C)c3ccccc3n1)c(=O)n2C
2. C[C@](O)(COc1ccc(C#N)cc1)C(=O)Nc1ccc(C#N)c(C(F)(F)F)c1

Response:
0.671
−0.515

Your task in this section: give SSMD.LYZ.NS for each listed record.
1. O=C(c1ccc(Nc2nccc(-c3cc4ccccc4s3)n2)cc1)N1CCC(N2CCCC2)CC1
2. O=C(O)c1ccc(Nc2ncc3c(n2)-c2ccc(Cl)cc2C(c2c(F)cccc2F)=NC3)cc1

Response:
["−2.119", "−0.870"]

###

Can you tell me Z.CTG (standard z score) for the items I'm about to list?
- Tested on: ISC-enriched organoids
- Protocol Details: Primary screen, 384-well 2.5-D organoid differentiation (ENR+CD, 6 days, Target Selective Inhibitor Library, vs whole-plate median): ATP (CellTiter-Glo 3D, CTG)
- Condition Description: dose 10.00 uM
Numbers only.

Worked set:
>>> recorded_result("c1ccc(NCc2ccc(CNc3ccccn3)cc2)nc1")
0.104
>>> recorded_result("CCCSc1nc(N[C@@H]2C[C@H]2c2ccc(F)c(F)c2)c2nnn([C@@H]3C[C@H](OCCO)[C@@H](O)[C@H]3O)c2n1")
"−0.576"
>>> recorded_result("O=C(NCc1ccccc1)c1csc(Nc2ccncn2)n1")
0.451
>>> recorded_result("CCC(=O)Nc1cccc(Oc2nc(Nc3ccc(N4CCN(C)CC4)cc3OC)ncc2Cl)c1")
"−0.043"

# ---- query molecule ----
Query: Provide Z.CTG (standard z score) value for the following molecule: COc1cc2ncnc(Nc3ccc(Cl)cc3F)c2cc1OC
Response: −3.559

###

- System: ISC-enriched organoids
- Protocol Details: Primary screen, 384-well 2.5-D organoid differentiation (ENR+CD, 6 days, Target Selective Inhibitor Library, vs whole-plate median): ATP (CellTiter-Glo 3D, CTG)
- Condition Description: Dose 0.40 uM; primary screen, standard z score
Measured Endpoint: Z.CTG
Numbers only.

>>> recorded_result("O=C(C[S+]([O-])Cc1ccco1)NC/C=C\\COc1cc(CN2CCCCC2)ccn1 (stereo not shown) [Lafutidine]")
0.346
>>> recorded_result("CNC(=O)[C@H](Cc1c[nH]c2ccccc12)NC(=O)[C@@H](CC(=O)NO)CC(C)C [Ilomastat (GM6001, Galardin)]")
0.389
>>> recorded_result("C[C@H](NC(=O)[C@@H](O)c1cc(F)cc(F)c1)C(=O)N[C@@H]1C(=O)N(C)c2ccccc2-c2ccccc21 [LY411575]")
"−0.411"

In the following, a different compound is considered.
Query: Fill in reported Z.CTG for this entry: Cc1cc(Nc2cc(CN3CCOCC3)c3nc(C)c(Cc4ccc(Cl)cc4F)n3n2)n[nH]1 [LY2784544]
Response: 0.148

###

- Test system: ISC-enriched organoids
- Protocol Details: Secondary (validation) screen, 384-well 2.5-D, ENR+CD 6 days, n=8 wells, vs ENR+CD+DMSO control: ATP (CTG)
- Type: cell-based, murine
- Condition Description: dose 0.08 uM
- Method: Drugs were tested at a narrowed dose range around each treatment's identified optimal dose from the primary screen (4× below, 2× above and below). High-throughput screening. Secondary lysozyme secretion assay screen. […] ATP, non-stimulated lysozyme activity and CCh-stimulated lysozyme activity was again measured and the collected data was again processed in a custom R-script, per primary screen with slight modification. […]
For each entry below, report its Z.CTG value.
Give bare numbers.

>>> recorded_result("COc1cc(Nc2c(C#N)cnc3cc(OCCCN4CCN(C)CC4)c(OC)cc23)c(Cl)cc1Cl [Bosutinib (SKI-606), Bosutinib]")
0.735
>>> recorded_result("CC(C)(C)NC(=O)[C@H]1CC[C@H]2[C@@H]3CC[C@H]4NC(=O)C=C[C@]4(C)[C@H]3CC[C@]12C [Finasteride]")
"−0.099"
>>> recorded_result("O=C(/C=C\\n1cnc(-c2cc(C(F)(F)F)cc(C(F)(F)F)c2)n1)NNc1cnccn1 [KPT-330]")
1.273

Query: Identify the reported Z.CTG for the following entry. CCc1c(C(=O)C(N)=O)c2c(OCC(=O)O)cccc2n1Cc1ccccc1 [Varespladib (LY315920), Varespladib]
Response: 1.862
